Target: NaV1.1 (Homo sapiens (Human), UniProt P35498)
Test: Sodium Influx Assay (Flux), NaV1.1;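 further: channels co-expressed with human β1 subunit and held open by modulators, cells exposed to compounds for one hour at room temperature, IC50 from percent inhibition of influx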
Type: cell-based
Conditions: Trex HEK293 cells, ANG2 dye, inactivated state
Entries and their IC50 values follow.
readoutType: IC50 (µM)

compound: C[C@H](Nc1cc(F)c(S(=O)(=O)Nc2cccc(F)n2)cc1Cl)c1ccccc1Cl [Example 23]
numericReadout: 5.4
--
compound: O=S(=O)(Nc1cscn1)c1cc(Cl)c(NCc2c(F)ccc3cc[nH]c23)cc1F [Example 298]
numericReadout: 7.19
--
compound: C[C@H](Oc1cc(F)c(S(=O)(=O)Nc2cscn2)cc1Cl)c1cc(Cl)ccc1F [Example 124]
numericReadout: 15.9
--
compound: O=S(=O)(Nc1ccon1)c1c(F)cc(NCc2c(F)cccc2CN2CCC2)cc1F [Example 204, 2,2,2-trifluoroacetate]
numericReadout: 30

###

Biological target: UniProtKB Q14524
Assay: Sodium Influx Assay (Flux), NaV1.5
Details: read-out: Flux NaV1.5 IC50; Trex HEK293 cells, ANG2 dye, inactivated state
pIC50: −log10 of the molar value. Counter-ions that a name gives are not always drawn.
Threshold check on pIC50: at or above 5 gives Fulfilled, strictly below gives Not fulfilled.

compound: C[C@@H](c1cccc(F)c1CNc1cc(F)c(S(=O)(=O)Nc2cscn2)c(F)c1)N1CCC1 [Example 278, formate]
answerLabel: Not fulfilled

compound: O=S(=O)(Nc1cscn1)c1cc(Cl)c(NCc2cc(CCN3CC(F)C3)ccc2F)cc1F [Example 263, formate]
answerLabel: Fulfilled

compound: O=S(=O)(Nc1cccc(F)n1)c1c(F)cc(NCc2ccccc2CN2CCC2)cc1F
answerLabel: Not fulfilled

compound: Cc1ccc(F)cc1CNc1cc(F)c(S(=O)(=O)Nc2cscn2)cc1Cl
answerLabel: Fulfilled

compound: C[C@H](Nc1ccc(S(=O)(=O)Nc2ccncn2)cc1C(F)(F)F)c1cc(F)ccc1F
answerLabel: Not fulfilled

compound: C[C@H](Nc1cc(F)c(S(=O)(=O)Nc2nccs2)cc1Cl)c1ccc2ccccc2c1
answerLabel: Not fulfilled

compound: O=S(=O)(Nc1nccs1)c1cc(Cl)c(N[C@H](CN2CCCC2)c2ccccc2)cc1F
answerLabel: Not fulfilled

compound: COC1CN(Cc2cccc(F)c2CNc2cc(F)c(S(=O)(=O)Nc3cscn3)c(F)c2)C1 [Example 171, formate]
answerLabel: Not fulfilled

compound: Cc1c(NCc2ccccc2CN2CCC2)cc(F)c(S(=O)(=O)Nc2ccncn2)c1F [Example 310, 2,2,2-trifluoroacetate]
answerLabel: Not fulfilled

compound: C[C@H](Nc1cc(F)c(S(=O)(=O)Nc2cccc(F)n2)cc1Cl)c1ccccc1Cl
answerLabel: Fulfilled

###

Molecular target: NaV1.1 (Homo sapiens (Human))
Assay: Sodium Influx Assay (Flux), NaV1.1
Format: cell-based
Details: Trex HEK293 cells, ANG2 dye, inactivated state
Counter-ions that a name gives are not always drawn.

molecule: O=S(=O)(Nc1nccs1)c1cc(Cl)c(NC2(c3ccccc3)CC2)cc1F
IC50 [µM]: 2.14
//
molecule: O=S(=O)(Nc1cscn1)c1c(F)cc(NCc2cc(CN3CCC3)ccc2F)cc1F [Example 195, formate]
IC50 [µM]: 27.2
//
molecule: C[C@H](Oc1cc(F)c(S(=O)(=O)Nc2cscn2)cc1Cl)c1ccccc1F
IC50 [µM]: 9.57
//
molecule: O=S(=O)(Nc1cccc(F)n1)c1cc(Cl)c(N[C@H](CN2CCCC2)c2ccccc2)cc1F [Example 72, 2,2,2-trifluoroacetate]
IC50 [µM]: 30
//
molecule: Cc1c(NCc2c(F)cccc2CN2CCC2)ccc(S(=O)(=O)Nc2ccon2)c1F [Example 315, 2,2,2-trifluoroacetate]
IC50 [µM]: 30
//
molecule: O=S(=O)(Nc1nccs1)c1cc(Cl)c(O[C@H](c2ccccc2)C(F)(F)F)cc1F
IC50 [µM]: 11.1
//
molecule: O=S(=O)(Nc1cscn1)c1c(F)cc(NCc2c(Cl)cccc2CN2CC3(COC3)C2)cc1F [Example 295, formate]
IC50 [µM]: 12.1
//
molecule: C[C@H](Nc1cc(F)c(S(=O)(=O)Nc2cscn2)cc1Cl)c1cccc(CN(C)C)c1 [Example 253, formate]
IC50 [µM]: 20
//
molecule: O=S(=O)(Nc1cscn1)c1c(F)cc(NCc2c(F)cccc2CN2CCC3(CCO3)C2)cc1F (stereo not drawn) [Example 155, formate]
IC50 [µM]: 30
//
molecule: CC[C@@H](Nc1cc(F)c(S(=O)(=O)Nc2nccs2)cc1Cl)c1ccccc1
IC50 [µM]: 2.35
//
molecule: O=S(=O)(Nc1cccnn1)c1c(F)cc(NCc2c(F)cccc2CN2CCC2)cc1F [Example 333, formate]
IC50 [µM]: 30
//
molecule: O=S(=O)(Nc1cscn1)c1cc(Cl)c(NCc2c(Cl)cccc2CN2CC3(CNC3)C2)cc1F [Example 291, 2,2,2-trifluoroacetate]
IC50 [µM]: 14
//
molecule: C[C@H](Nc1cc(F)c(S(=O)(=O)Nc2ncco2)cc1Cl)c1cc(F)ccc1F
IC50 [µM]: 25.2
//
molecule: O=S(=O)(Nc1cscn1)c1c(F)cc(NCc2c(Cl)cccc2CN2CC(F)C2)cc1F
IC50 [µM]: 4.24
//
molecule: O=S(=O)(Nc1cscn1)c1c(F)cc(NCc2c(F)cccc2CN2CC3(CCC3)C2)cc1F [Example 252, formate]
IC50 [µM]: 9.96
//
molecule: O=S(=O)(Nc1cscn1)c1cc(Cl)c(NCc2c(F)ccc(F)c2CN2CC3(CCOCC3)C2)cc1F [Example 282, 2,2,2-trifluoroacetate]
IC50 [µM]: 9.78
//
molecule: C[C@H](Nc1cc(F)c(S(=O)(=O)Nc2cscn2)cc1Cl)c1cc(OCC2(C)COC2)ccc1F
IC50 [µM]: 12.5
//
molecule: O=S(=O)(Nc1ccon1)c1cc(Cl)c(NCc2c(F)cccc2CN2CCC2)cc1F [Example 301, formate]
IC50 [µM]: 30
//
molecule: CN(Cc1cccc(F)c1CNc1cc(F)c(S(=O)(=O)Nc2ccsn2)c(F)c1)C(C)(C)C [Example 189, formate]
IC50 [µM]: 30
//
molecule: CN(Cc1cccc(F)c1CNc1cc(F)c(S(=O)(=O)Nc2cscn2)c(F)c1)CC1CC1 [Example 187, formate]
IC50 [µM]: 12.4
//
molecule: COc1cccc(CN2CCC2)c1CNc1cc(F)c(S(=O)(=O)Nc2cscn2)c(F)c1 [Example 209, 2,2,2-trifluoroacetate]
IC50 [µM]: 27.3
//
molecule: O=S(=O)(Nc1cscn1)c1cc(Cl)c(NCc2c(F)cccc2CN2CC3(CCC3)C2)cc1F
IC50 [µM]: 5.37
//
molecule: O=S(=O)(Nc1cscn1)c1c(F)cc(NCc2c(Cl)ccc(F)c2CN2CCC2)cc1F [Example 309, 2,2,2-trifluoroacetate]
IC50 [µM]: 6.34
//
molecule: CC[C@H](Nc1cc(F)c(S(=O)(=O)Nc2nccs2)cc1Cl)c1ccccc1
IC50 [µM]: 0.637
//
molecule: CN(C)C[C@H](Nc1cc(F)c(S(=O)(=O)Nc2nccs2)cc1Cl)c1ccccc1 [Example 65, 2,2,2-trifluoroacetate]
IC50 [µM]: 2.23
//
molecule: O=S(=O)(Nc1cscn1)c1c(F)cc(NCc2c(F)ccc(F)c2CN2CCC2)cc1F
IC50 [µM]: 14.9
//
molecule: C[C@H](Nc1cc(F)c(S(=O)(=O)Nc2nccs2)cc1Cl)c1cccc(Br)c1
IC50 [µM]: 3
//
molecule: O=S(=O)(Nc1nccs1)c1cc(Cl)c(NC(CC(F)(F)F)c2ccccc2)cc1F (stereo not drawn)
IC50 [µM]: 0.364
//
molecule: CN(Cc1cccc(F)c1CNc1ccc(S(=O)(=O)Nc2cscn2)c(F)c1F)C(C)(C)C [Example 203, 2,2,2-trifluoroacetate]
IC50 [µM]: 26.6
//
molecule: O=S(=O)(Nc1nccs1)c1cc(Cl)c(NC2CCCc3ccncc32)cc1F (stereo not drawn) [Example 93, 2,2,2-trifluoroacetate]
IC50 [µM]: 0.314

###

Entries and their pIC50 values follow.
Target: NaV1.5 (Homo sapiens (Human))
Sequence (Q14524 other isoform, or with tags, fused parts or gaps): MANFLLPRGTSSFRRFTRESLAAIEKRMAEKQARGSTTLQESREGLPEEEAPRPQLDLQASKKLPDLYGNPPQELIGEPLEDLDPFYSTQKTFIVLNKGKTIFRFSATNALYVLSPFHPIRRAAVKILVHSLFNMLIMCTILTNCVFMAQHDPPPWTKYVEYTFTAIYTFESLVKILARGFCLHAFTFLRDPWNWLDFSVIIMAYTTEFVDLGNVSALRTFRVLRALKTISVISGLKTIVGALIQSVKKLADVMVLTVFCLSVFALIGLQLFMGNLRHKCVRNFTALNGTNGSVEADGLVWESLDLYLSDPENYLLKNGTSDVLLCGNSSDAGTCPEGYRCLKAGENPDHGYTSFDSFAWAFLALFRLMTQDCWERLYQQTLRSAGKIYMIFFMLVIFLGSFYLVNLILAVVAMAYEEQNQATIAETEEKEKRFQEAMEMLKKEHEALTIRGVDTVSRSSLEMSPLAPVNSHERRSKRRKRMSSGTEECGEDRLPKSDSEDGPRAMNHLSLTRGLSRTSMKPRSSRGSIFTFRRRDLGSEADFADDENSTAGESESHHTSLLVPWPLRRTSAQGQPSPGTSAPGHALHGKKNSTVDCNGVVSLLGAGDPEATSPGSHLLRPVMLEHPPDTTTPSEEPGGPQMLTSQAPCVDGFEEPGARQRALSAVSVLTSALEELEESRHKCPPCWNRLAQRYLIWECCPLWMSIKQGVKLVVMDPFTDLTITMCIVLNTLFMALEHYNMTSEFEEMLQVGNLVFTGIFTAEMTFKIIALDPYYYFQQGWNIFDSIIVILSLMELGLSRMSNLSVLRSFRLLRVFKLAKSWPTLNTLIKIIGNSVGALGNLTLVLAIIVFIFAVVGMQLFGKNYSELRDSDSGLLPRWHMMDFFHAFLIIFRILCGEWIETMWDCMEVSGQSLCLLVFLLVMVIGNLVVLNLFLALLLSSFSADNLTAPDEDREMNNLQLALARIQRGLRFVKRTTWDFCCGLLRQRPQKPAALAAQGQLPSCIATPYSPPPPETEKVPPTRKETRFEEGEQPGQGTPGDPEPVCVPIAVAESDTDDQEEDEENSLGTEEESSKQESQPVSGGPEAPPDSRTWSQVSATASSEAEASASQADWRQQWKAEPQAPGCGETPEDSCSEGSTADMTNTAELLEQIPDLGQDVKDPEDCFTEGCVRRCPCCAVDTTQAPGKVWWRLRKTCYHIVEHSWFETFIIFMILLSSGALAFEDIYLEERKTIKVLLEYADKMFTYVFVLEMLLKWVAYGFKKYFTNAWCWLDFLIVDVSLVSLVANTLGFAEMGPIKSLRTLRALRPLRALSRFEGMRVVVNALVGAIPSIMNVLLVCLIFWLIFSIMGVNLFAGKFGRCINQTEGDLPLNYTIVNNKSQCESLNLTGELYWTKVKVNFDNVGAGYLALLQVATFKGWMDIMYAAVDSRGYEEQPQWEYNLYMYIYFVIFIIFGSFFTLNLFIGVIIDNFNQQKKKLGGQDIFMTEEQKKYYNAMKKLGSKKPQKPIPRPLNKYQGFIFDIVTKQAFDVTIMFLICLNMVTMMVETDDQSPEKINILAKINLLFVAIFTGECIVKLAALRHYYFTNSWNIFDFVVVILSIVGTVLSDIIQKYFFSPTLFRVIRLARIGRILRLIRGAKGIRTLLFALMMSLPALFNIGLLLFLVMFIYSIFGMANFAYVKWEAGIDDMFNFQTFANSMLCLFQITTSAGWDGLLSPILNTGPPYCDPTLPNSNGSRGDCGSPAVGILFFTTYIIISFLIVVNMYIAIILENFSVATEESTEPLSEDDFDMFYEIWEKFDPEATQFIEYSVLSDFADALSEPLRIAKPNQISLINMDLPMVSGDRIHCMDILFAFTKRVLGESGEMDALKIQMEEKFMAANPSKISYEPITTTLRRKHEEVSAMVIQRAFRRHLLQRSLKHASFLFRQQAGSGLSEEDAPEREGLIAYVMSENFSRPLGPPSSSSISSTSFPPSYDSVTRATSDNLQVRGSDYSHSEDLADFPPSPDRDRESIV
Assay: Sodium Influx Assay (Flux), NaV1.5
Conditions: read-out: Flux NaV1.5 IC50; Trex HEK293 cells, ANG2 dye, inactivated state
pIC50: −log10 of the molar value. Counter-ions that a name gives are not always drawn.

compound: C[C@H](Nc1cc(F)c(S(=O)(=O)Nc2cscn2)cc1Cl)c1cc(OC2COC2)ccc1F
pIC50: 4.52
--
compound: O=S(=O)(Nc1cscn1)c1c(F)cc(NCc2c(F)cccc2CN2CC3(CCC3)C2)cc1F [Example 252, formate]
pIC50: 4.90
--
compound: CC[C@H](Nc1cc(F)c(S(=O)(=O)Nc2nccs2)cc1Br)c1ccccc1
pIC50: 5.05
--
compound: C[C@H](Oc1cc(F)c(S(=O)(=O)Nc2cscn2)c(F)c1)c1ccccc1F
pIC50: 4.95
--
compound: C[C@H](Nc1cc(F)c(S(=O)(=O)Nc2ccncn2)c(F)c1)c1cc(F)ccc1F [Example 208, 2,2,2-trifluoroacetate]
pIC50: 4.52
--
compound: Cc1cccc(CN2CCC2)c1CNc1cc(F)c(S(=O)(=O)Nc2cscn2)c(F)c1 [Example 285, formate]
pIC50: 4.57
--
compound: O=S(=O)(Nc1cscn1)c1c(F)cc(NCc2ccccc2CN2CCC2)cc1F [Example 272, formate]
pIC50: 4.52
--
compound: O=S(=O)(Nc1nccs1)c1cc(Cl)c(OCc2ccccc2F)cc1F
pIC50: 4.52
--
compound: C[C@H](Nc1cc(F)c(S(=O)(=O)Nc2nccs2)cc1Cl)c1cccc2ccccc12
pIC50: 5.08
--
compound: C[C@H](c1cccc(F)c1CNc1cc(F)c(S(=O)(=O)Nc2cscn2)c(F)c1)N1CCC1 [Example 279, formate]
pIC50: 4.52
--
compound: O=S(=O)(Nc1nccs1)c1ccc(N[C@@H](CO)c2ccccc2)c(Cl)c1
pIC50: 4.52
--
compound: O=S(=O)(Nc1cscn1)c1c(F)cc(NCc2c(F)cccc2CN2CC3CC3C2)cc1F (stereo not shown)
pIC50: 4.52
--
compound: O=S(=O)(Nc1nccs1)c1cc(Cl)c(N[C@@H](CN2CCCC2)c2ccccc2)cc1F
pIC50: 4.52
--
compound: O=S(=O)(Nc1nccs1)c1cc(Cl)c(NC2(c3ccccc3)CCC2)cc1F
pIC50: 4.98
--
compound: C[C@H](Oc1cc(F)c(S(=O)(=O)Nc2nccs2)cc1F)c1ccccc1F
pIC50: 5.46
--
compound: CN(C)C[C@@H](Nc1cc(F)c(S(=O)(=O)Nc2nccs2)cc1Cl)c1ccccc1 [Example 64, 2,2,2-trifluoroacetate]
pIC50: 4.52
--
compound: Cc1c(NCc2c(F)cccc2CN2CCC2)cc(F)c(S(=O)(=O)Nc2cscn2)c1F [Example 304, 2,2,2-trifluoroacetate]
pIC50: 4.67
--
compound: O=S(=O)(Nc1cscn1)c1cc(Cl)c(NC2(c3ccccc3)CC2)cc1F
pIC50: 4.52
--
compound: CCc1cc(S(=O)(=O)Nc2cscn2)c(F)cc1N[C@@H](C)c1cc(F)ccc1F
pIC50: 5.06
--
compound: O=S(=O)(Nc1nccs1)c1cc(Cl)c(NC2(c3ccccc3)CC2)cc1F
pIC50: 4.95
--
compound: CC[C@H](Oc1cc(F)c(S(=O)(=O)Nc2cscn2)cc1Cl)c1ccccc1F
pIC50: 5.58
--
compound: CN(Cc1cccc(F)c1CNc1cc(F)c(S(=O)(=O)Nc2cscn2)c(F)c1)C1CCC1 [Example 179, formate]
pIC50: 5.19
--
compound: Cc1c(NCc2ccccc2CN2CCC2(C)C)cc(F)c(S(=O)(=O)Nc2cscn2)c1F [Example 305, 2,2,2-trifluoroacetate]
pIC50: 4.52
--
compound: O=S(=O)(Nc1cscn1)c1cc(Cl)c(OC2(c3ccccc3)CC2)cc1F
pIC50: 4.72
--
compound: CC[C@H](Nc1cc(F)c(S(=O)(=O)Nc2nccs2)cc1Cl)c1ccccc1
pIC50: 5.10
--
compound: CC[C@H](Nc1cc(F)c(S(=O)(=O)Nc2ccncn2)c(F)c1)c1cc(F)ccc1Cl
pIC50: 4.62
--
compound: O=S(=O)(Nc1nccs1)c1cc(Cl)c(N[C@H](CN2CC(F)C2)c2ccccc2)cc1F [Example 68, 2,2,2-trifluoroacetate]
pIC50: 4.60
--
compound: CC[C@H](Nc1cc(F)c(S(=O)(=O)Nc2nccs2)cc1Cl)c1ccccc1F
pIC50: 5.19
--
compound: O=S(=O)(Nc1ccncn1)c1cc(Cl)c(N[C@H](c2cc(Cl)ccc2F)C(F)(F)F)cc1F
pIC50: 4.96
--
compound: O=S(=O)(Nc1cscn1)c1cc(Cl)c(N[C@@H]2C[C@H](N3CCC3)c3ccccc32)cc1F [Example 321, formate]
pIC50: 4.55
--
compound: O=S(=O)(Nc1nccs1)c1cc(Cl)c(N[C@H](c2ccccc2F)C(F)(F)F)cc1F
pIC50: 5.14
